Consider the following molecules and their measured inhibition at 10 µM readings.
tested-on: MOR (μ opioid receptor) (Homo sapiens)
Construct: expressed in transfected cells; host or cells: HEK293
Sequence (P35372 whole entry, species assumed): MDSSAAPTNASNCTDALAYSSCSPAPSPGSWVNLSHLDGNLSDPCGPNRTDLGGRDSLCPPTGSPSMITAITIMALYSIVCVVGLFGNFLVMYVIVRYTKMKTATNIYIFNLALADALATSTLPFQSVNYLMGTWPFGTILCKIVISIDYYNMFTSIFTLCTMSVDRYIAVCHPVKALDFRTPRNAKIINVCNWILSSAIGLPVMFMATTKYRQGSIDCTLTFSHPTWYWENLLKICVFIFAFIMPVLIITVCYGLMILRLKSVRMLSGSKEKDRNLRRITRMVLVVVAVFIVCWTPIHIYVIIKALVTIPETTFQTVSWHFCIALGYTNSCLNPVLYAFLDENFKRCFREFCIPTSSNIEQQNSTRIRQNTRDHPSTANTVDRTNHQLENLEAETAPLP
method-summary: MOR radioligand binding ([3H]-DAMGO, HEK293 cell homogenates)
assay-context: Percent inhibition at 10,000 nM; [3H]-DAMGO
Give just the number in %; leave the unit off.

C#Cc1ccc2c(c1)C(c1ccccc1)=NCc1c(-c3cnco3)ncn1-2 = 5
C#Cc1ccc2c(c1)C(c1ccccc1F)=N[C@@H](C)c1c(C(=O)N(C)C)ncn1-2 = 18
Fc1ccccc1C1=NCc2c(-c3cnco3)ncn2-c2ccc(Br)cc21 = 16
C#Cc1ccc2c(c1)C(c1ccccc1F)=N[C@@H](C)c1c(C(=O)OC)ncn1-2 = 0
C#Cc1ccc2c(c1)C(c1ccccc1F)=N[C@@H](C)c1c(C(N)=O)ncn1-2 = 2

Read the entry C#Cc1ccc2c(c1)C(c1ccccc1F)=N[C@H](C)c1c(C(=O)OC)ncn1-2 and write its reported inhibition at 10 µM.
0

Read the entry CCOC(=O)c1ncn2c1[C@@H](C)N=C(c1ccccc1F)c1cc(C3CC3)ccc1-2 and write its reported inhibition at 10 µM.
0

Read the entry C#Cc1ccc2c(c1)C(c1ccccc1F)=N[C@H](C)c1c(C(=O)N3CCCC3)ncn1-2 and write its reported inhibition at 10 µM.
0

----------
Test system: RAW macrophages
method-summary: Cell viability (CellTiter-Glo), RAW macrophages
Format: cell-based, mouse
assay-context: CellTiter-Glo
measurement-name: Cell viability (%) RAW macrophages 50 μM
Give just the number in %; leave the unit off.

CCOC(=O)c1ncn2c1CN=C(c1ccccn1)c1cc(C3CC3)ccc1-2 [GL-IV-05] = 100
Cc1noc(-c2ncn3c2[C@@H](C)N=C(c2ccccc2F)c2cc(C4CC4)ccc2-3)n1 [GL-III-63] = 87
O=C(O)c1ncn2c1CN=C(c1ccccc1)c1cc(Br)ccc1-2 [GL-I-50] = 100
C#Cc1ccc2c(c1)C(c1ccccc1)=NCC(=O)N2C [QH-II-66] = 100
C#Cc1ccc2c(c1)C(c1ccccn1)=NC(C)C(=O)N2C (centres unmarked) [GL-II-61] = 100

Read the entry CCOC(=O)c1ncn2c1[C@@H](C)N=C(c1ccccn1)c1cc(Br)ccc1-2 [GL-II-06] and write its reported Cell viability (%) RAW macrophages 50 μM.
100

Read the entry CC1N=C(c2ccccc2F)c2cc(Br)ccc2-n2cnc(C(=O)[O-])c21.[Na+] (centres unmarked) [GL-IV-18] and write its reported Cell viability (%) RAW macrophages 50 μM.
98

Read the entry C#Cc1ccc2c(c1)C(c1ccccn1)=N[C@H](C)c1c(-c3nc(CC)no3)ncn1-2 [GL-III-97] and write its reported Cell viability (%) RAW macrophages 50 μM.
98

Read the entry C#Cc1ccc2c(c1)C(c1ccccc1F)=N[C@H](C)c1c(-c3nc(C)no3)ncn1-2 [MP-IV-004] and write its reported Cell viability (%) RAW macrophages 50 μM.
83

Read the entry C#Cc1ccc2c(c1)C(c1ccccc1F)=NC(C)c1c(C(=S)N(C)C)ncn1-2 (centres unmarked) [GL-III-85] and write its reported Cell viability (%) RAW macrophages 50 μM.
100

Read the entry CC(C)c1noc(-c2ncn3c2[C@@H](C)N=C(c2ccccc2F)c2cc(Br)ccc2-3)n1 [GL-IV-01] and write its reported Cell viability (%) RAW macrophages 50 μM.
100

----------
tested-on: MOR (μ opioid receptor) (Homo sapiens)
Construct: expressed in transfected cells; host or cells: HEK293
method-summary: MOR radioligand binding ([3H]-DAMGO, HEK293 cell homogenates)
assay-context: Percent inhibition at 10,000 nM; [3H]-DAMGO
Consider the following compounds and their measured inhibition at 10 µM readings.
Give just the number in %; leave the unit off.

Field: example entries. Status: answers known.
C#Cc1ccc2c(c1)C(c1ccccc1F)=N[C@H](C)c1c(C(=O)NC3CC3)ncn1-2 = 0
CCOC(=O)c1ncn2c1[C@@H](C)N=C(c1ccccc1F)c1cc(Br)ccc1-2 = 16
C#Cc1ccc2c(c1)C(c1ccccc1F)=N[C@@H](C)c1c(C(=O)OC(C)(C)CC)ncn1-2 = 30
C#Cc1ccc2c(c1)C(c1ccccc1F)=N[C@@H](C)c1c(C(=O)NC(C)(C)C)ncn1-2 = 40
C#Cc1ccc2c(c1)C(c1ccccn1)=NCc1c(-c3nc(CC)no3)ncn1-2 = 0
C[C@H]1N=C(c2ccccn2)c2cc(Br)ccc2-n2cnc(C(=O)O)c21 = 0
C#Cc1ccc2c(c1)C(c1ccccn1)=N[C@H](C)c1c(C(=O)OC)ncn1-2 = 32
C[C@H]1N=C(c2ccccc2F)c2cc(Br)ccc2-n2cnc(-c3cnco3)c21 = 0
C#Cc1ccc2c(c1)C(c1ccccn1)=NCc1c(-c3nc(C)no3)ncn1-2 = 0
C#Cc1ccc2c(c1)C(c1ccccc1F)=N[C@@H](C)c1c(-c3cnco3)ncn1-2 = 10

Read the entry C#Cc1ccc2c(c1)C(c1ccccc1F)=N[C@H](C)c1c(-c3cnco3)ncn1-2 and write its reported inhibition at 10 µM.
12

Read the entry C#Cc1ccc2c(c1)C(c1ccccc1F)=N[C@H](C)c1c(-c3nc(C(C)C)no3)ncn1-2 and write its reported inhibition at 10 µM.
33

----------
tested-on: DOR (δ opioid receptor) (Homo sapiens, UniProt P41143)
Construct: expressed in transfected cells; host or cells: HEK293
Sequence (P41143 whole entry): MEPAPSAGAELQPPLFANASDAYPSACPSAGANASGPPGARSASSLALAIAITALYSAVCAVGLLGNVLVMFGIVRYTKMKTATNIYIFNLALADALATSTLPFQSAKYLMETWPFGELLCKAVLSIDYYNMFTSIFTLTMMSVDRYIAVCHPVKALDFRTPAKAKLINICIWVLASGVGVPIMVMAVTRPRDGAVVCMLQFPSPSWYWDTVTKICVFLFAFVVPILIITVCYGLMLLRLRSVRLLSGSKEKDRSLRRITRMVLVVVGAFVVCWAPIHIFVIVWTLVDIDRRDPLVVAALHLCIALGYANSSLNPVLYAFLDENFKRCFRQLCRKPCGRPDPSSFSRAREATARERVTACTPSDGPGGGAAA
method-summary: DOR radioligand binding ([3H]-DADLE, HEK293 cell homogenates)
assay-context: Percent inhibition at 10,000 nM; [3H]-DADLE
yes means recorded inhibition at 10 µM is 9% or above; no means it is below 9%.

Here are 6 compounds together with their reported answers.
C#Cc1ccc2c(c1)C(c1ccccc1F)=N[C@H](C)c1c(C(=O)N(C)C)ncn1-2 [GL-II-73] = no
C#Cc1ccc2c(c1)C(c1ccccc1F)=N[C@@H](C)c1c(C(=O)OCCC)ncn1-2 [GL-I-32] = yes
Fc1ccccc1C1=NCc2c(-c3cnco3)ncn2-c2ccc(Br)cc21 [SH-I-85] = yes
C#Cc1ccc2c(c1)C(c1ccccn1)=N[C@H](C)c1c(C(=O)NC)ncn1-2 [GL-II-31] = no
C#Cc1ccc2c(c1)C(c1ccccc1F)=N[C@H](C)c1c(C(=O)OC)ncn1-2 [MP-III-004] = yes
C#Cc1ccc2c(c1)C(c1ccccn1)=NCc1c(-c3nc(C)no3)ncn1-2 [MP-III-085] = no

For the next question, use this compound.
Form field: inhibition at 10 µM at least 9%? Entry: C#Cc1ccc2c(c1)C(c1ccccn1)=NCc1c(-c3ocnc3C)ncn1-2 [KRM-III-79]
no

----------
System: Mouse microglia
method-summary: Cell viability (CellTiter-Glo), mouse microglia
Type: cell-based
assay-context: 50 μM, CellTiter-Glo
measurement-name: Cell viability (%) Mouse microglia 50 μM
Give just the number in %; leave the unit off.

C#Cc1ccc2c(c1)C(c1ccccc1F)=N[C@@H](C)c1c(-c3nc(CC)no3)ncn1-2 [GL-I-66] = 71
C#Cc1ccc2c(c1)C(c1ccccn1)=NC(C)c1c(-c3nc(C)no3)ncn1-2 (centres unmarked) [GL-II-33] = 100
CC1N=C(c2ccccc2F)c2cc(Cl)ccc2NC1=O (centres unmarked) [GL-III-52] = 85
C#Cc1ccc2c(c1)C(c1ccccc1F)=N[C@H](C)c1c(-c3nc(C)no3)ncn1-2 [MP-IV-004] = 100
C#Cc1ccc2c(c1)C(c1ccccc1F)=N[C@H](C)c1c(-c3cnco3)ncn1-2 [GL-III-73] = 80
C#Cc1ccc2c(c1)C(c1ccccc1)=NCC(=O)N2 [GL-III-59] = 96
Cc1noc(-c2ncn3c2[C@@H](C)N=C(c2ccccn2)c2cc(C4CC4)ccc2-3)n1 [GL-III-64] = 96

Now consider a different compound.
Read the entry C#Cc1ccc2c(c1)C(c1ccccc1F)=N[C@@H](C)c1c(-c3cnco3)ncn1-2 [GL-III-78] and write its reported Cell viability (%) Mouse microglia 50 μM.
79

----------
tested-on: BZR (benzodiazepine site of GABAAR)
method-summary: GABAAR/BZR binding, rat brain homogenate with 3H-flunitrazepam
assay-context: rat brain homogenate, 3H-flunitrazepam; read-out: affinity for the benzodiazepine site of GABAARs (IC50)
measurement-name: pIC50
The read-out pIC50 is expressed as -log10 of concentration in moles per litre.

Read the entry C#Cc1ccc2c(c1)C(c1ccccc1F)=N[C@H](C)c1c(-c3nc(C(C)C)no3)ncn1-2 and write its reported pIC50.
5.60

----------
Tested on: BZR (benzodiazepine site of GABAAR)
method-summary: GABAAR/BZR binding, rat brain homogenate with 3H-flunitrazepam
assay-context: Percent inhibition at 10,000 nM; rat brain homogenate, 3H-flunitrazepam
measurement-name: BZR % (%)
Give just the number in %; leave the unit off.

CCOC(=O)c1ncn2c1[C@H](C)N=C(c1ccccc1F)c1cc(C3CC3)ccc1-2 = 76

Read the entry C#Cc1ccc2c(c1)C(c1ccccc1F)=N[C@H](C)c1c(C(=O)N(C)C)ncn1-2 and write its reported BZR %.
75

Read the entry C[C@@H]1N=C(c2ccccc2F)c2cc(Br)ccc2-n2cnc(-c3cnco3)c21 and write its reported BZR %.
100

Read the entry C#Cc1ccc2c(c1)C(c1ccccn1)=N[C@H](C)c1c(C(=O)OCC)ncn1-2 and write its reported BZR %.
71
